- tested-target: human ether-à-go-go-related gene (hERG) potassium channel (human);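 note: peak tail current of the secondary pulse compared with the same well before compound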
- run-description: primary screen, population patch clamp on CHO cells stably expressing hERG; higher = less effect of the substance
Among all 310,000 compounds or so, about 14,000 (4.5%) showed an effect of 50% or more. Effects have a minus sign here. The sample holds strong results, similar compounds and a random draw of the others, so the mix is not that of the screen.
measurement-label: hERG current change (%, negative = inhibition) at 10uM (%)
Kindly answer with a numeric value in %, unit omitted.

Some solved entries appear below for comparison.
In [3]: df
Out[3]:
                                   compound                             tested_target  measurement_units  numeric_readout
0  COc1ccccc1CNC(=O)CN1C(=O)c2ccccc2S1(=O)=O  human ether-à-go-go-related gene (hERG) potassium channel (human)                  %             12.7
1  CCN(CC)c1ccc(C2C(C(=O)OCCOC)=C(C)NC3=C2C(=O)CCC3)cc1 (centres unmarked)  human ether-à-go-go-related gene (hERG) potassium channel (human)                  %            -5.24
2  C=CCn1c(Oc2ccccc2F)nc2c1c(=O)n(C)c(=O)n2C  human ether-à-go-go-related gene (hERG) potassium channel (human)                  %             2.59

Value of measured hERG current change (%, negative = inhibition) at 10uM for the entry `CCn1c(CCNC(=O)c2cccs2)nnc1SCC(=O)c1ccc(OC)cc1` : 7.05

Value of measured hERG current change (%, negative = inhibition) at 10uM for the entry `COC(=O)CSc1nc(C)cc(N2CCOCC2)n1` : 7.89

====

List of hERG current change (%, negative = inhibition) at 10uM values.
- tested-target: human ether-à-go-go-related gene (hERG) potassium channel (human, UniProt Q12809);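 note: peak tail current of the secondary pulse compared with the same well before compound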
- Sequence (Q12809 whole entry, looked up): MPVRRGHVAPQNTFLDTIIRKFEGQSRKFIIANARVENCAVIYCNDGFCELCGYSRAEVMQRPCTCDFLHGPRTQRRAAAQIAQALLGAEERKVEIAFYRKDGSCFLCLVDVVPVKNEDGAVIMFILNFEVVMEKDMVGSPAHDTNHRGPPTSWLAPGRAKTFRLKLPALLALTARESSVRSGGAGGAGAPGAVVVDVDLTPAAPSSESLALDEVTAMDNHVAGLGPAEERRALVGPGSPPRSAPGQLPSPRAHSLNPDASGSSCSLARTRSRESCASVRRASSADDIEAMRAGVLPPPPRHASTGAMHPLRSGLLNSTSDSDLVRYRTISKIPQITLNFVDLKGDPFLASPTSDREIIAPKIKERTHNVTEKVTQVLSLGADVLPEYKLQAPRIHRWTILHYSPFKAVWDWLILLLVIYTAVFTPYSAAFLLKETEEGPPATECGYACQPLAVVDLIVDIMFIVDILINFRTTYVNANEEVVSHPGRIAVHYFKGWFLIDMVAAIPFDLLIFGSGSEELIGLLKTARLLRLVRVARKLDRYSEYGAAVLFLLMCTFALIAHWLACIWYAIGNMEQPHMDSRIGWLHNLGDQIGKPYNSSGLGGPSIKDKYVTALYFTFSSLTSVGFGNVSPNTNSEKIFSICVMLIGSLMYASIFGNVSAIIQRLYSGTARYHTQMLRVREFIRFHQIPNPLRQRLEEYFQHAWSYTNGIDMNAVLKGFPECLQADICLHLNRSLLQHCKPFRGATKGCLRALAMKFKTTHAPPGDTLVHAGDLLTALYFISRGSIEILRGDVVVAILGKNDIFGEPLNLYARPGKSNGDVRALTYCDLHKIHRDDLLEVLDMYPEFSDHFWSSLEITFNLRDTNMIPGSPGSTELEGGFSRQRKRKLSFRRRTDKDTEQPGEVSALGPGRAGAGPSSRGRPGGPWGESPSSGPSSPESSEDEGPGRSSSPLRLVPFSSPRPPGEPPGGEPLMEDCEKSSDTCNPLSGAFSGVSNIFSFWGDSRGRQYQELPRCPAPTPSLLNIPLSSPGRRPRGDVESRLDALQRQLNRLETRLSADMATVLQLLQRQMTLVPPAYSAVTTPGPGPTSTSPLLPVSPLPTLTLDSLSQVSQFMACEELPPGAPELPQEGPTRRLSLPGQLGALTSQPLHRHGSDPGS
- run-description: primary screen, population patch clamp on CHO cells stably expressing hERG; higher = less effect of the substance
Among all 310,000 compounds or so, about 14,000 (4.5%) showed an effect of 50% or more. Effects have a minus sign here. Shown is part of a subset that was picked to be rich in strong results.
Kindly answer with a numeric value in %, unit omitted.

                                   compound                             tested_target  numeric_readout
0  CC(CS(=O)(=O)c1ccc2c(c1)NC(=O)CS2)C(=O)N1CCN(c2cccc(Cl)c2)CC1 (centres unmarked)  human ether-à-go-go-related gene (hERG) potassium channel (human, UniProt Q12809)            -52.1
1  Cc1cccn2c(=O)c3cc(S(=O)(=O)c4ccccc4)c(=N)n(CC4CCCO4)c3nc12 (centres unmarked)  human ether-à-go-go-related gene (hERG) potassium channel (human, UniProt Q12809)            -15.3
2  Cc1ccc2nc3c(cc(C(=O)NCCc4ccccc4)c(=N)n3CC3CCCO3)c(=O)n2c1 (centres unmarked)  human ether-à-go-go-related gene (hERG) potassium channel (human, UniProt Q12809)            -76.9
3  Cc1ccc(CCNC(=O)c2ccc3nc4ccccc4c(=O)n3c2)cc1  human ether-à-go-go-related gene (hERG) potassium channel (human, UniProt Q12809)             6.08
4  O=C1COc2ccc(S(=O)(=O)CCC(=O)N3CCN(c4ccccc4)CC3)cc2N1  human ether-à-go-go-related gene (hERG) potassium channel (human, UniProt Q12809)            -13.1
5  Cc1cccn2c(=O)c3cc(C(=O)NCCc4ccccc4)c(=N)n(CC4CCCO4)c3nc12 (centres unmarked)  human ether-à-go-go-related gene (hERG) potassium channel (human, UniProt Q12809)            -82.3
6  O=C1COc2ccc(S(=O)(=O)CCC(=O)N3CCN(c4cccc(C(F)(F)F)c4)CC3)cc2N1  human ether-à-go-go-related gene (hERG) potassium channel (human, UniProt Q12809)            -46.3

Then there is this compound:
Value of measured hERG current change (%, negative = inhibition) at 10uM for the entry CC(CC(=O)N1CCN(c2ccccc2)CC1)S(=O)(=O)c1ccc2c(c1)NC(=O)CS2 (centres unmarked) : -34.6

====

- tested-target: human ether-à-go-go-related gene (hERG) potassium channel (human, UniProt Q12809);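 note: peak tail current of the secondary pulse compared with the same well before compound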
- run-description: primary screen, population patch clamp on CHO cells stably expressing hERG; higher = less effect of the substance
Screen size: about 310,000 compounds; about 14,000 (4.5%) showed an effect of 50% or more. Effects have a minus sign here. This is one part of a sample in which strong results are shown more often than they occur.
measurement-label: hERG current change (%, negative = inhibition) at 10uM (%)
Kindly answer with a numeric value in %, unit omitted.

Some solved entries appear below for comparison.
In [3]: df
Out[3]:
                                   compound                             tested_target  numeric_readout
0  CN(CC(=O)Nc1cccnc1)S(=O)(=O)c1ccc(Br)cc1  human ether-à-go-go-related gene (hERG) potassium channel (human, UniProt Q12809)            -21.3
1  COc1ccc(/C=C/C(=O)NC(=S)NN2CCCCC2c2cccnc2)cc1 (centres unmarked)  human ether-à-go-go-related gene (hERG) potassium channel (human, UniProt Q12809)            -26.9
2  CN(Cc1ccc(OC(F)F)cc1)Cc1nc2c(Br)cc(Br)cc2c(=O)[nH]1  human ether-à-go-go-related gene (hERG) potassium channel (human, UniProt Q12809)            -5.29
3  O=C1Nc2ccccc2N(O)N1c1ccc(S(=O)(=O)N2CCCCCC2)cc1  human ether-à-go-go-related gene (hERG) potassium channel (human, UniProt Q12809)             1.75
4  O=C(NC(=S)N1CCCCC1c1cccnc1)c1ccccc1 (centres unmarked)  human ether-à-go-go-related gene (hERG) potassium channel (human, UniProt Q12809)              4.5
5  O=C(/C=C/c1ccc(Cl)cc1)NC(=S)NN1CCCCC1c1cccnc1 (centres unmarked)  human ether-à-go-go-related gene (hERG) potassium channel (human, UniProt Q12809)              -67

Value of measured hERG current change (%, negative = inhibition) at 10uM for the entry `Cc1ccc(-n2c(C)nc3ccccc3c2=O)cc1C` : -52.2

Value of measured hERG current change (%, negative = inhibition) at 10uM for the entry `Cc1cccc(S(=O)(=O)Nc2ccc(-c3ccc4nncn4n3)cc2)c1` : -123

====

- tested-target: human ether-à-go-go-related gene (hERG) potassium channel (human);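 note: peak tail current of the secondary pulse compared with the same well before compound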
- run-description: primary screen, population patch clamp on CHO cells stably expressing hERG; higher = less effect of the substance
The campaign covered roughly 310,000 compounds. About 14,000 (4.5%) showed an effect of 50% or more. The effect is printed as a negative number. Shown is part of a subset that was picked to be rich in strong results.
List of hERG current change (%, negative = inhibition) at 10uM values.
Kindly answer with a numeric value in %, unit omitted.

                                   compound                             tested_target  numeric_readout
0  COc1ccc(NC(=O)CN(C)C(=O)c2ccccc2SCC(=O)N2CCCC2)cc1  human ether-à-go-go-related gene (hERG) potassium channel (human)             10.5
1  Cc1ccccc1Cn1c(=O)n(CCCC(=O)NCc2ccco2)c(=O)c2ccccc21  human ether-à-go-go-related gene (hERG) potassium channel (human)            -15.5
2  CC1CCc2nc(NC(=O)CN3CCN(Cc4ccc5c(c4)OCO5)CC3)sc2C1 (stereo not drawn)  human ether-à-go-go-related gene (hERG) potassium channel (human)            -66.7
3  O=C(c1cc(COc2ccc(F)cc2Cl)on1)N1CCC(c2ccncc2)CC1  human ether-à-go-go-related gene (hERG) potassium channel (human)            -72.5
4       CCCN1CCC(N(C)CCc2ccc(OC)c(OC)c2)CC1  human ether-à-go-go-related gene (hERG) potassium channel (human)            -11.4

Value of measured hERG current change (%, negative = inhibition) at 10uM for the entry `O=S(=O)(Nc1cccc(F)c1)c1cccc2nsnc12` : 3.21

Value of measured hERG current change (%, negative = inhibition) at 10uM for the entry `Cc1cc(C)cc(NC(=O)N2CCN(Cc3ccc4c(c3)OCO4)CC2)c1` : -59

Value of measured hERG current change (%, negative = inhibition) at 10uM for the entry `COc1ccc(C(=O)Nc2ccccc2C(=O)N2CCOCC2)cc1Br` : -17.3

Value of measured hERG current change (%, negative = inhibition) at 10uM for the entry `CC(C)CC(=O)N1CCC(N(CCc2ccccc2)Cc2ccccc2)CC1.O=C(O)C(=O)O` : -46.8

Value of measured hERG current change (%, negative = inhibition) at 10uM for the entry `O=C(Nc1ccccc1)N1CCN(Cc2ccc3c(c2)OCO3)CC1` : -26.1

Value of measured hERG current change (%, negative = inhibition) at 10uM for the entry `C=C1CCN([C@@H](C)C(=O)NCc2ccc(OC)cc2)S(=O)(=O)c2ccccc21` : -6.66
